I'd be grateful if you could share measured Plant response rating (0 to 100 scale), Surinam Grass for these entries.
Tested on: Surinam grass
ASSAY DETAILS: Test B pre-/postemergence herbicide test
Format: in vivo, Urochloa decumbens
CONDITION SUMMARY: 125 g ai/ha; 0 is no effect, 100 is complete control; preemergence
Method: […] At the same time, plants selected from these crop and weed species and also blackgrass (Alopecurus myosuroides Huds.), wheat (Triticum aestivum L.) and wild oat (Avena fatua L.) were treated with postemergence applications of test chemicals formulated in the same manner. […] Treated plants and controls were maintained in a greenhouse for 13 to 15 days, after which time all species were compared to controls and visually evaluated. […]
Give bare numbers.

CCOC(=O)c1cncc(NC(=O)c2nn(C(C)(C)C)nc2C)c1 [Compound 422] | 0

Consider the following items and state reported Plant response rating (0 to 100 scale), Surinam Grass for each.
1. Cc1nn(C(C)C)nc1C(=O)Nc1cccc(C(=O)N2CC=CC2)c1 [Compound 406]
2. CCc1nn(C(C)C)nc1C(=S)Nc1cccc(C(=S)N(C)C)c1 [Compound 410]
3. CCn1nc(C(C)(C)C)cc1C(=O)Nc1cc(OC)ccc1F [Compound 347]
4. CCNC(=O)c1cccc(NC(=O)c2nn(C(C)(C)C)nc2CC)c1 [Compound 365]

20
60
0
70

Consider the following items and state reported Plant response rating (0 to 100 scale), Surinam Grass for each.
1. Cc1nn(C(C)C)nc1C(=O)Nc1cccc(C(=O)N(C)C)c1 [Compound 404]
2. CCNC(=O)c1cccc(NC(=O)c2nn(C(C)(C)C)nc2C)c1 [Compound 392]
3. CCn1nc(C(C)(C)C)cc1C(=O)Nc1cc(OCCF)ccc1F [Compound 350]
4. CCOC(=O)c1cccc(NC(=O)c2nn(C(C)(C)C)nc2Br)c1 [Compound 432]
5. CCOC(=O)c1ccc(F)c(NC(=O)c2nn(C(C)(C)CC)nc2CC)c1 [Compound 373]

40
70
0
10
0

Consider the following items and state reported Plant response rating (0 to 100 scale), Surinam Grass for each.
1. CCc1nn(C2CCCC2)nc1C(=O)Nc1cccc(C(=O)N2CC=CC2)c1 [Compound 354]
2. Cc1nn(C(C)(C)C)nc1C(=O)Nc1cccc(C(=O)N2CC=CC2)c1 [Compound 393]

1. 0
2. 80

----------
Tested on: smallflower umbrella sedge
ASSAY DETAILS: Test C flooded paddy test
Type: in vivo, Cyperus difformis
CONDITION SUMMARY: 125 g ai/ha, scale of 0 to 100, 0 is no effect, 100 is complete control
I'd be grateful if you could share measured Sedge, Umbrella plant response rating for these entries.
Numbers only.

Some entries whose results are on file:
C#CCNC(=O)c1cccc(NC(=O)c2cc(C(C)(C)C)nn2CC)c1 | 70
CC(=NO)c1cccc(NC(=O)c2cc(C(C)(C)C)nn2CCF)c1 | 85

Consider the following items and state reported Sedge, Umbrella plant response rating for each.
1. CCOC(=O)c1cc(NC(=O)c2cc(C(C)(C)C)nn2CC)ccc1OC
2. CCn1nc(C(C)(C)C)cc1C(=O)Nc1cccc2c1CCN(C1CC1)C2=O

[90, 25]

----------
I'd be grateful if you could share measured Plant response rating, Rice for these entries.
Test system: rice
ASSAY DETAILS: Test B pre-/postemergence herbicide test
Assay type: in vivo, Oryza sativa
CONDITION SUMMARY: 500 g ai/ha; visual rating, 0 = no effect, 100 = complete control; preemergence

Some entries whose results are on file:
CCN(CC)C(=O)c1cc(NC(=O)c2cc(C(C)(C)C)nn2CC)c(F)cc1F | 0
CCn1nc(C(C)(C)C)cc1C(=O)Nc1cc(OC)ccc1OC | 10
CCN(C)C(=O)c1ccc(F)c(NC(=O)C2CC(C(C)(C)C)=NN2CC)c1 (racemic) | 90
CCNC(=O)c1cccc(NC(=O)c2sc(C(C)(C)C)nc2CC)n1 | 40
CCn1nc(C2(C)CC2)cc1C(=O)Nc1cc(C(=O)N(C)C)ccc1F | 90

Now consider a different molecule.
Retrieve Plant response rating, Rice measured for "CCc1cn(C(C)(C)C)nc1C(=O)Nc1cc(C(=O)N(CC)CC)ccn1" and print it.
0
